- subject.of.test: lysine gingipain (Kgp) (Porphyromonas gingivalis (strain ATCC 33277 / DSM 20709 / CIP 103683 / JCM 12257 / NCTC 11834 / 2561))
- procedure.text: Inhibition of lysine gingipain, fluorogenic assay (Z-His-Glu-Lys-MCA)
- Assay type: biochemical
- applied.conditions: Table 3; read-out: IC50 (nM) Kgp
quantity.measured: log10 of IC50 (log10 of the value in nM)
Recorded IC50 (log10, nM)

NCCCCC(NC(=O)C1CCCC1)C(=O)COc1cccc(F)c1 (stereo not drawn)	0.11
NCCCCC(NC(=O)C1CCCC1)C(=O)COc1cc(F)cc(F)c1 (stereo not drawn)	-0.47
[N-]=[N+]=Nc1cccc(C(=O)NC(CCCCN)C(=O)COc2c(F)cccc2F)c1 (stereo not drawn) [Compound 12a]	-1.10
NCCCCC(NC(=O)C1CCCC1)C(=O)COc1cc(F)cc(F)c1F (stereo not drawn)	-1.15
NCCCCC(NC(=O)C1CCCC1)C(=O)COc1cccc(F)c1F (stereo not drawn)	-0.82

Moving on to another molecule below.
*Q* Give log10 of IC50 for NCCCCC(NC(=O)C1CCCC1)C(=O)COc1cc(F)ccc1F (stereo not drawn)
*A* -0.72

----------
- subject.of.test: lysine gingipain (Kgp) (Porphyromonas gingivalis (strain ATCC 33277 / DSM 20709 / CIP 103683 / JCM 12257 / NCTC 11834 / 2561), UniProt B2RLK2)
- procedure.text: Inhibition of lysine gingipain, fluorogenic assay (Z-His-Glu-Lys-MCA)
- Type: biochemical
- applied.conditions: Table 3; read-out: IC50 (nM) Kgp
quantity.measured: IC50 (nM)
Dear colleague, please return just the value in nM, with no unit written.

NCCCCC(NC(=O)C1CCCC1)C(=O)COC(C(F)(F)F)C(F)(F)F (centres unmarked) [Compound 18a]	0.5

Please turn your attention to the following entry.
*Q* Given the compound NCCCCC(NC(=O)C1CCCC1)C(=O)COc1ccccc1F (centres unmarked) , write its reported IC50.
*A* 0.64

----------
- subject.of.test: lysine gingipain (Kgp) (Porphyromonas gingivalis (strain ATCC 33277 / DSM 20709 / CIP 103683 / JCM 12257 / NCTC 11834 / 2561))
- procedure.text: Inhibition of lysine gingipain, fluorogenic assay (Z-His-Glu-Lys-MCA)
- Format: biochemical
- applied.conditions: Table 4; read-out: IC50 (nM) Kgp
// boundary case: IC50 equal to 0.1 nM maps to condition not met; strictly smaller maps to condition met

Below, 8 compounds whose answers are already recorded.
NCCCCC(NC(=O)c1cccnc1F)C(=O)COc1c(F)cccc1F (stereo not shown) [Compound 32a]	condition met
NCCCCC(NC(=O)C1CCCC1)C(=O)COc1cccc(F)c1 (stereo not shown)	condition not met
C[N+](C)(C)c1ccc(C(=O)NC(CCCCN)C(=O)COc2ccon2)cn1 (stereo not shown) [Compound 61a]	condition not met
NCCCCC(NC(=O)C1CCCC1)C(=O)COC(C(F)(F)F)C(F)(F)F (stereo not shown) [Compound 18a]	condition not met
NCCCCC(NC(=O)c1ccc(F)nc1)C(=O)COc1c(F)cccc1F (stereo not shown) [Compound 29a]	condition not met
NCCCCC(NC(=O)c1ccccc1)C(=O)C(F)F (stereo not shown) [Compound 37a]	condition not met
NCCCCC(NC(=O)c1ccccn1)C(=O)COc1c(F)ccc(F)c1F (stereo not shown) [Compound 50a]	condition met
NCCCCC(NC(=O)c1ccc(F)nc1)C(=O)COc1ccon1 (stereo not shown) [Compound 55a]	condition not met

*Q* IC50 strictly < 0.1 nM for this compound? NCCCCC(NC(=O)c1cccnc1Br)C(=O)COc1c(F)cccc1F (stereo not shown) [Compound 34a]
*A* condition not met

*Q* Quick check: IC50 of NCCCCC(NC(=O)c1cccc(OCCF)c1)C(=O)COc1c(F)cccc1F (stereo not shown) [Compound 27a] under 0.1 nM?
*A* condition not met

*Q* Determine if NCCCCC(NC(=O)C1CCCC1)C(=O)Cn1ccc(=O)nc1 (stereo not shown) [Compound 40a] shows IC50 strictly lower than 0.1 nM.
*A* condition not met

*Q* Dear colleague, could you confirm whether IC50 of NCCCCC(NC(=O)c1cccc(F)n1)C(=O)COc1c(F)cccc1F (stereo not shown) [Compound 28a] falls below 0.1 nM? Thanks.
*A* condition not met

*Q* Answer whether the compound NCCCCC(NC(=O)C1CCCC1)C(=O)COc1ccon1 (stereo not shown) [Compound 49a] has IC50 strictly less than 0.1 nM
*A* condition not met

*Q* IC50 under 0.1 nM? Item: NCCCCC(NC(=O)C1CCCC1)C(=O)Cn1cncc(F)c1=O (stereo not shown) [Compound 41a]
*A* condition not met

----------
- subject.of.test: lysine gingipain (Kgp) (Porphyromonas gingivalis (strain ATCC 33277 / DSM 20709 / CIP 103683 / JCM 12257 / NCTC 11834 / 2561), UniProt B2RLK2)
- procedure.text: Inhibition of lysine gingipain, fluorogenic assay (Z-His-Glu-Lys-MCA)
- Type: biochemical
- applied.conditions: Table 4; read-out: IC50 (nM) Kgp
- Protocol: The specific assay conditions were as follows. Buffer: pH=7.5, 100 mM Tris-HCl, 75 mM NaCl, 2.5 mM CaCl2, 10 mM cysteine, 1% DMSO after all additions. […] Further assays to measure the inhibitory activity of compounds of the present invention against Kgp and cathepsins B, H, K, L, and S were conducted as described in Example 66. The capacities of the compounds to inhibit the activity of cathepsins F, V, and Z were also measured.
quantity.measured: IC50 (nM)
Answer in nM, number only, no unit symbol.

Example results:
NCCCCC(NC(=O)c1ccncc1)C(=O)COc1c(F)ccc(F)c1F (centres unmarked) [Compound 52a]	0.06
NCCCCC(NC(=O)c1cccnc1)C(=O)COc1c(F)cccc1F (centres unmarked) [Compound 43a]	0.09
CN(C)c1ccc(C(=O)NC(CCCCN)C(=O)COc2ccon2)cn1 (centres unmarked) [Compound 62a]	0.14

*Q* Consider the compound COC(C)(C)C(=O)NC(CCCCN)C(=O)COc1cc(C)nc(C)c1 (centres unmarked) [Compound 63a] . State its measured IC50.
*A* 0.09

----------
- subject.of.test: lysine gingipain (Kgp) (Porphyromonas gingivalis (strain ATCC 33277 / DSM 20709 / CIP 103683 / JCM 12257 / NCTC 11834 / 2561))
- procedure.text: Inhibition of lysine gingipain, fluorogenic assay (Z-His-Glu-Lys-MCA)
- Format: biochemical
- applied.conditions: as compared to reference compound 73
quantity.measured: selectivity for Kgp over endogenous cathepsins

Some solved entries appear below for comparison.
NCCCC[C@H](NC(=O)c1ccccn1)C(=O)COc1c(F)ccc(F)c1F	increased selectivity
COC(C)(C)C(=O)N[C@@H](CCCCN)C(=O)COc1c(F)ccc(F)c1F	far more selective
NCCCC[C@H](NC(=O)c1ccc(F)nc1)C(=O)COc1ccon1	far more selective
NCCCC[C@H](NC(=O)C1CCCC1)C(=O)COc1c(F)cccc1F	increased selectivity
NCCCC[C@H](NC(=O)C1CCCC1)C(=O)COc1cccc(F)c1	increased selectivity

*Q* Retrieve selectivity for Kgp over endogenous cathepsins measured for COC(C)(C)C(=O)N[C@@H](CCCCN)C(=O)COC(C(F)(F)F)C(F)(F)F and print it.
*A* far more selective

*Q* Using the record for NCCCC[C@H](NC(=O)C1CCCC1)C(=O)COC(C(F)(F)F)C(F)(F)F , state its measured selectivity for Kgp over endogenous cathepsins.
*A* far more selective

----------
- subject.of.test: lysine gingipain (Kgp) (Porphyromonas gingivalis (strain ATCC 33277 / DSM 20709 / CIP 103683 / JCM 12257 / NCTC 11834 / 2561))
- procedure.text: Inhibition of lysine gingipain, fluorogenic assay (Z-His-Glu-Lys-MCA)
- Format: biochemical
- applied.conditions: Table 5, probe compounds; read-out: Kgp IC50
quantity.measured: pIC50
Just the number, please; pIC50 means minus log10 of the concentration in mol/L.

*Q* Hello, please tell me recorded pIC50 for this one: CN(C)c1ccc(/N=N/c2ccc(C(=O)NCc3cc(F)c(OCC(=O)C(CCCCN)NC(=O)c4cccc(N=[N+]=[N-])c4)c(F)c3)cc2)cc1 (centres unmarked) [Compound 44a]
*A* 8.52

----------
- subject.of.test: lysine gingipain (Kgp) (Porphyromonas gingivalis (strain ATCC 33277 / DSM 20709 / CIP 103683 / JCM 12257 / NCTC 11834 / 2561))
- procedure.text: Inhibition of lysine gingipain, fluorogenic assay (Z-His-Glu-Lys-MCA)
- Assay type: biochemical
- applied.conditions: Table 3; read-out: IC50 (nM) Kgp
Listed here: items and their measured IC50.

// below: answered molecules
CS(=O)(=O)CC(=O)C(CCCCN)NC(=O)C1CCCC1 (stereo not drawn) [Compound 20a]	> 100 nM
NCCCC[C@H](NC(=O)C1CCCC1)C(=O)COc1c(F)c(F)cc(F)c1F (stereo in doubt) [Compound 73, reference compound]	≤ 0.05 nM

*Q* Could you please provide reported IC50 for CN(C)CC(=O)C(CCCCN)NC(=O)C1CCCC1 (stereo not drawn) [Compound 19a] ? Thanks!
*A* > 100 nM
